Assayed target: Vesicular acetylcholine transporter (Torpedo californica, UniProt P81721)
Sequence (P81721 whole entry): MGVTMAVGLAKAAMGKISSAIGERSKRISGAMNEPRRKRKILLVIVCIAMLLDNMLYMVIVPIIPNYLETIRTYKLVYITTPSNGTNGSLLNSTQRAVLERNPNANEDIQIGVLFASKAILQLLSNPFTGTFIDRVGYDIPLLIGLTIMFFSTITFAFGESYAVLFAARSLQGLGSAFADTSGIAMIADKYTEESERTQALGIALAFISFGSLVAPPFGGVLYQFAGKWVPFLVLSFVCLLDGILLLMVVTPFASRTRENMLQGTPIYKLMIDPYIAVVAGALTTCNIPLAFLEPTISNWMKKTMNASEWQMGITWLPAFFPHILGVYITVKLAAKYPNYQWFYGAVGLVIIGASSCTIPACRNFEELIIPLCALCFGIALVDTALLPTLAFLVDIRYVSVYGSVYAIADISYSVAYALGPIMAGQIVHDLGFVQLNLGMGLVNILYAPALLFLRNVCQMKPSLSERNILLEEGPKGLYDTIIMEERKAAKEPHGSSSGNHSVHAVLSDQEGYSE
Property: IC50 (nM)

A. Cc1ccc(CN2CC[C@@H](O)[C@H](N3CCC(c4ccccc4)CC3)C2)cc1
B. O[C@@H]1CN(Cc2ccc(Br)cc2)CC[C@H]1N1CCC(c2ccccc2)CC1
Task: Could you check which of A and B has a smaller value for IC50? Refer to your chosen item by its label in the answer.
Output: A
(A: 24 nM, B: 310 nM)

I. O[C@@H]1CCN(Cc2cccc(Br)c2)C[C@H]1N1CCC(c2ccccc2)CC1
II. O[C@@H]1CN(Cc2ccccc2)CC[C@H]1N1CCC(c2ccccc2)CC1
Task: # argmax over IC50 for candidates I and II Refer to your chosen item by its label in the answer.
Output: II

P. O[C@@H]1CCN(Cc2ccc(Br)cc2)C[C@H]1N1CCC(c2ccccc2)CC1
Q. O=[N+]([O-])c1ccc(N2CC[C@@H](O)[C@H](N3CCC(c4ccccc4)CC3)C2)cc1
Task: Could you check which of P and Q has a smaller value for IC50? Refer to your chosen item by its label in the answer.
Output: P
(P: 25 nM, Q: 290 nM)

1. O[C@@H]1CCN(Cc2cccc(F)c2)C[C@H]1N1CCC(c2ccccc2)CC1
2. O[C@@H]1CNCC[C@H]1N1CCC(c2ccccc2)CC1
Task: # argmax over IC50 for candidates 1 and 2 Refer to your chosen item by its label in the answer.
Output: 2
(2: 5000 nM, 1: 31 nM)

====

Assayed target: Vesicular acetylcholine transporter (Torpedo californica, UniProt P81721)
Sequence (P81721 whole entry): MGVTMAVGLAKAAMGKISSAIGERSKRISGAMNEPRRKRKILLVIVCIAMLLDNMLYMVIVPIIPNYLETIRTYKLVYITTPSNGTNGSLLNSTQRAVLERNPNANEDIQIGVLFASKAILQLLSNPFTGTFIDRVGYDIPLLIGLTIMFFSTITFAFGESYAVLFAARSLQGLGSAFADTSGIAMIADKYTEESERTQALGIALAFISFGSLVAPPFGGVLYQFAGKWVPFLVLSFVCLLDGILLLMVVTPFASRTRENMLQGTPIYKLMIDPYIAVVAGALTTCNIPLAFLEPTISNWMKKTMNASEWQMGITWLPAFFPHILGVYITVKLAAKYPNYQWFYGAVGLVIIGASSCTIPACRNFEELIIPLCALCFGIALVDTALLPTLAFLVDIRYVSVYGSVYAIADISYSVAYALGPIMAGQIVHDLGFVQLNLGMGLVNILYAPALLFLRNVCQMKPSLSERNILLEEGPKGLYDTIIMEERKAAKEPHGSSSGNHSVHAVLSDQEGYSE
pIC50: −log10 of the molar value.
Property: pIC50

The following compounds have reported results that may help.
O[C@@H]1CCN(Cc2ccc(F)cc2)C[C@H]1N1CCC(c2ccccc2)CC1 :: 7.85
O[C@@H]1CCN(Cc2cccc(I)c2)C[C@H]1N1CCC(c2ccccc2)CC1 :: 7.59

a. O[C@@H]1CCN(Cc2ccccc2F)C[C@H]1N1CCC(c2ccccc2)CC1
b. O[C@@H]1CCN(Cc2ccccc2Br)C[C@H]1N1CCC(c2ccccc2)CC1
Task: Could you check which of a and b has a smaller value for pIC50? Refer to your chosen item by its label in the answer.
Output: a
(a: 7.38, b: 7.66)
